- Test system: NCI-H322M lung
- Protocol summary: NCI-60 one-dose screen, 48 h (100 = growth as untreated, 0 = no growth, -100 = all killed)
- Test context: 10 µM unless noted
Compounds without any hit were thinned out: in the full panel of roughly 83,000, 20% have a hit. Calls of active or inactive are those of the source. The calls were made as follows: active = growth percent below 10; inactive = the rest.
Provide the recorded growth for the entries that follow.

Please review the entries below; each comes with its answer.
Compound	Test system	growth
C=C(C)[C@@H]1CC[C@]2(C(=O)N3CCNCC3)CC[C@]3(C)[C@H](CC[C@@H]4[C@@](C)(CCC(=O)N5CCNCC5)[C@H](C(=C)C)CC[C@]43C)[C@@H]12	NCI-H322M lung	102% (inactive)
Cc1ccc(OCCOCCOCCOc2ccc(C)n(O)c2=S)c(=S)n1O	NCI-H322M lung	40.6% (inactive)
CC(=O)c1sc(-c2ccc(F)cc2)cc1O	NCI-H322M lung	98.3% (inactive)
CCOC(=O)c1[nH]cc2c1CCc1sc(Nc3ccccn3)nc1-2	NCI-H322M lung	96% (inactive)
Cc1nc2sc(C(=O)Nc3cccc4ccccc34)c(N)c2cc1C(=O)c1ccccc1	NCI-H322M lung	62.4% (inactive)
CNC(=O)c1cc(Oc2ccc3c(c2)sc2nc(-c4cc(C(F)(F)F)cc(C(F)(F)F)c4)cn23)ccn1	NCI-H322M lung	89.8% (inactive)
O=C(O)c1cn(C2CC2)c2cc(N3CCN(C(=O)N/N=C/c4cccc5ccccc45)CC3)c(F)cc2c1=O	NCI-H322M lung	101% (inactive)
CCC(C)(C)c1ccc(Nc2ccc(Nc3ccc(C(C)(C)CC)cc3)cc2)cc1	NCI-H322M lung	105% (inactive)

Need growth for each of these compounds.
1. N[C@@H]1CCC[C@H]1NCCCCN1C(=O)c2cccc3cc([N+](=O)[O-])cc(c23)C1=O
2. CC1(C)CC(=O)C2=C(C1)C(c1ccc(Cl)cc1)n1ncc(C#N)c1N2 (stereo not given)
3. CNC(=O)Nc1ccc(-c2ccc3ncnc(Nc4cccc(Cl)c4)c3c2)cc1
4. O=c1cc(CNc2cc(F)cc(F)c2)c2ccc(I)cc2[nH]1
5. CN1c2ccccc2S(=O)(=O)n2c(SCC(=O)Nc3nc4ccc(F)cc4s3)nnc21

Result string:
["41.2% (inactive)", "90.9% (inactive)", "7.46% (active)", "48.3% (inactive)", "93.1% (inactive)"]

Need growth for each of these compounds.
1. CN(C)c1ccc(/C=N\NC(=O)c2ccc3nc(-c4ccc(Cl)cc4)[nH]c3c2)cc1
2. O=C1/C(=C/c2ccccn2)SC(=S)N1N1CCOCC1
3. Cc1cc2oc(/C=C/c3ccccc3)cc(=O)c2c(C)c1Cl
4. C#COc1cccc(Nc2ncnc3cc(NC(=O)[C@H](C)Cl)ccc23)c1
5. ClCCn1cnc2c(SCc3ccccc3)ncnc21

Result string:
77.6% (inactive)
97.5% (inactive)
110% (inactive)
30% [6.25 µM] (inactive)
75.3% (inactive)

Need growth for each of these compounds.
1. CC(C)(C)c1ccc(S(=O)(=O)Oc2ccc(-c3sc4cc(OS(=O)(=O)c5ccc(C(C)(C)C)cc5)ccc4c3C(=O)c3ccc(OCCN4CCCCC4)cc3)cc2)cc1
2. CCCC(=O)NC(c1ccc2c(c1)OCO2)c1cc(Cl)c2cccnc2c1O (stereo not given)
3. Cc1ccc(NC(=O)c2cc3ccccc3cc2O)c(C)c1
4. Cc1cc(C(=O)CCCC(=O)c2cc(C)c(O)c(C)c2)cc(C)c1O
5. COC(=O)/C=C1/SC(=NCc2ccccc2)N(CCc2c[nH]c3ccccc23)C1=O
6. O=C(/C=C/c1ccccc1Cl)c1cccc(OCCCCOc2cccc(C(=O)/C=C/c3ccccc3Cl)c2)c1

Result string:
96.1% (inactive)
42.1% (inactive)
94.4% (inactive)
114% (inactive)
98.9% (inactive)
99.9% (inactive)

Need growth for each of these compounds.
1. COC1/C=C/OC2(C)Oc3c(C)c(O)c4c(O)c(c(/C=N/N(c5ccccc5)c5ccccc5)c(O)c4c3C2=O)NC(=O)C(C)=C/C=C/C(C)C(O)C(C)C(O)C(C)C(OC(C)=O)C1C (stereo not given)
2. Cc1ccc(O)c(NC(=O)c2cccc(Nc3ccnc(C(F)(F)F)c3)c2)c1
3. CC1(C)N=C(N)N=C(N)N1c1cc(Cl)ccc1Cl
4. CCn1cc(C(=O)N/N=C/c2ccccc2)c(=O)c2cc(F)c(N3CCNC(C)C3)c(F)c21 (stereo not given)
5. COc1cc2c(cc1OCCCN1CCN(C(=S)SCCC(C#N)(c3ccccc3)c3ccccc3)CC1)N=C[C@@H]1CCCN1C2=O
6. CCCc1cc(=O)oc2c(C(=O)CC(C)C)c(O)c(CC=C(C)C)c(O)c12

Result string:
109% (inactive)
86.5% (inactive)
119% (inactive)
52.4% (inactive)
-62.2% (active)
22.3% (inactive)

Need growth for each of these compounds.
1. N=C(N)c1ccc(-c2ccc(-c3ccccc3)o2)o1
2. CC1=C(Cl)C(=O)c2cc(C)ccc2C1=O
3. Nc1ncnc2c1N=C(c1ccc(F)cc1)CC(c1cccc(Nc3ccnc4cc(Cl)ccc34)c1)N2 (stereo not given)
4. COc1ccc2c(c1)CC[C@@H]1[C@@H]2CC[C@]2(C)c3c(cc(C#N)c4c3sc3ccccc34)C[C@@H]12

Result string:
1. 60.3% (inactive)
2. 94.4% (inactive)
3. 89.6% (inactive)
4. 108% (inactive)

Need growth for each of these compounds.
1. CCCCNC(=O)c1ccc2c(c1)nc(-c1ccccc1)n2C1CCCCC1
2. Nc1[nH]nc2nc(-c3ccccc3)n3c4ccccc4nc3c12
3. CC(C)(C)CC(C)(C)Nc1c(-c2c(O)c3ccccc3oc2=O)nc2sc3ccccc3n12
4. Cc1c2cnccc2c(C)c2c1c1cc(CO)ccc1n2C
5. Cc1ccc2c(/C=C/C(=O)c3cc(CN4CCOCC4)c(O)c4nc(C)ccc34)cc(CN3CCOCC3)c(O)c2n1
6. Cc1nn(C)c2ncnc(N/N=C/c3cccc(O)c3O)c12

Result string:
90.5% (inactive)
93% (inactive)
42.5% (inactive)
-40.2% (active)
17% (inactive)
14.7% (inactive)

====

- System: U251 CNS
- Protocol summary: NCI-60 one-dose screen, 48 h (100 = growth as untreated, 0 = no growth, -100 = all killed)
- Test context: 10 µM unless noted
Compounds without any hit were thinned out: in the full panel of roughly 83,000, 20% have a hit.
Flag rule - growth less than 40% flags rule met; the remaining entries get rule not met.

These solved cases illustrate the format of a correct answer.
> print(dat)
                                   compound  test.system         label
1  COc1cc2c(c(OC)c1OC)C(=O)CC(c1cccc(C(=O)Nc3ccc(C#N)cc3)c1)O2 (centres undefined)     U251 CNS  rule not met
2  CNC(=O)Nc1ccc(-c2ccc3ncnc(Nc4cccc(Cl)c4)c3c2)cc1     U251 CNS  rule not met
3  CCN1C(=O)N(CC)C2C1NN=c1s/c(=C\c3ccc(OC)cc3)c(=O)n12 (centres undefined)     U251 CNS      rule met
4  O=C1OCC2=C1C(c1ccccc1)c1cc3c(cc1N2CCO)OCCO3 (centres undefined)     U251 CNS      rule met
5     Oc1c(I)cc(I)cc1CN(Cc1ccccn1)Cc1ccccn1     U251 CNS      rule met

Query string: Below 40% on growth? Entry "CCN(CC)CCOc1ccc2c(-c3ccccc3)c(-c3ccc(OC)cc3)c(=O)oc2c1"
Result string: rule not met

Query string: Below 40% on growth? Entry "COC(=O)c1c2c(c(C)[n+]([O-])c1C)C(=O)C(NCc1ccccc1)=CC2=O"
Result string: rule met

Query string: Below 40% on growth? Entry "C/C=C1/CN(CCCCC)CC[C@H]1C(=O)c1cc2ccccc2[nH]1"
Result string: rule not met

Query string: Below 40% on growth? Entry "C=C1C(=O)O[C@H]2[C@H]1CC/C(COC(=O)C(=O)c1c[nH]c3ccc(Cl)cc13)=C\CC[C@@]1(C)O[C@@H]21"
Result string: rule met

====

Provide the recorded growth for the entries that follow.
- Tested on: RXF 393 renal
- Protocol summary: NCI-60 one-dose screen, 48 h (100 = growth as untreated, 0 = no growth, -100 = all killed)
- Test context: 10 µM unless noted
This is part of a sample that, as a whole, favours compounds with a hit. Of some 83,000 tested, about 20% had one in any assay.
Give bare numbers, in %.

Please review the entries below; each comes with its answer.
> print(dat)
                                   compound    test.system  result
1  O=C(c1c[nH]c2ccccc12)c1n[nH]c(=S)n1-c1ccc([N+](=O)[O-])cc1  RXF 393 renal     102
2  Cc1ccc(Cc2cnc(NC(=O)/C=C/c3ccc(C)o3)s2)cc1  RXF 393 renal    41.6
3  COc1cc2c(c(OC)c1OC)C(=O)CC(c1cccc(C(=O)Nc3ccccc3Br)c1)O2 (stereo not given)  RXF 393 renal     110

Need growth for each of these compounds.
1. COC(=O)/C=C1/SC(=NCc2ccccc2)N(CCc2c[nH]c3ccccc23)C1=O
2. CNCC[C@H](Oc1cccc2ccccc12)c1cccs1

Result string:
81.9
72.3
